# target_entity: SGK3 (human)
# experiment_description: split-luciferase competition binding
# reported_conditions: compound 10.0 µM
property_measured: inhibition (%)

In [3]: df
Out[3]:
                         smiles_structure  property_measured  recorded_value
0  Cc1ccc(-c2nn(C(C)(C)C)c3ncnc(N)c23)cc1         inhibition               0

1: Cn1cnc2c(NCc3ccccc3)nc(NCCO)nc21
2: Cc1cc(I)ccc1Nc1c(C(=O)NOCC2CC2)cc(F)c(F)c1F
When the recorded inhibition values are compared, which is smaller: that of 1 or that of 2 ? Answer with the label corresponding to your selection. 1
(1: 0%, 2: 2%)

----------
# target_entity: PRKCI (human)
# experiment_description: split-luciferase competition binding
# reported_conditions: compound 10.0 µM
property_measured: inhibition (%)

I: Cc1cc(F)c(Nc2ncnc3cc(OCc4ccccc4)ccc23)cc1O
II: CN(C)CCCn1cc(C2=C(c3c[nH]c4ccccc34)C(=O)NC2=O)c2ccccc21
III: CC(C)N(CCC(=O)c1ccc2ccccc2c1)Cc1ccccc1
Which order do the above molecules take when sorted by rising inhibition? Smallest first. The labels, placed in the requested order, form the answer. III, I, II
(III: 0%, I: 5%, II: 35%)

----------
# target_entity: PKN1 (human) (UniProt Q16512)
# Sequence (Q16512 whole entry, looked up): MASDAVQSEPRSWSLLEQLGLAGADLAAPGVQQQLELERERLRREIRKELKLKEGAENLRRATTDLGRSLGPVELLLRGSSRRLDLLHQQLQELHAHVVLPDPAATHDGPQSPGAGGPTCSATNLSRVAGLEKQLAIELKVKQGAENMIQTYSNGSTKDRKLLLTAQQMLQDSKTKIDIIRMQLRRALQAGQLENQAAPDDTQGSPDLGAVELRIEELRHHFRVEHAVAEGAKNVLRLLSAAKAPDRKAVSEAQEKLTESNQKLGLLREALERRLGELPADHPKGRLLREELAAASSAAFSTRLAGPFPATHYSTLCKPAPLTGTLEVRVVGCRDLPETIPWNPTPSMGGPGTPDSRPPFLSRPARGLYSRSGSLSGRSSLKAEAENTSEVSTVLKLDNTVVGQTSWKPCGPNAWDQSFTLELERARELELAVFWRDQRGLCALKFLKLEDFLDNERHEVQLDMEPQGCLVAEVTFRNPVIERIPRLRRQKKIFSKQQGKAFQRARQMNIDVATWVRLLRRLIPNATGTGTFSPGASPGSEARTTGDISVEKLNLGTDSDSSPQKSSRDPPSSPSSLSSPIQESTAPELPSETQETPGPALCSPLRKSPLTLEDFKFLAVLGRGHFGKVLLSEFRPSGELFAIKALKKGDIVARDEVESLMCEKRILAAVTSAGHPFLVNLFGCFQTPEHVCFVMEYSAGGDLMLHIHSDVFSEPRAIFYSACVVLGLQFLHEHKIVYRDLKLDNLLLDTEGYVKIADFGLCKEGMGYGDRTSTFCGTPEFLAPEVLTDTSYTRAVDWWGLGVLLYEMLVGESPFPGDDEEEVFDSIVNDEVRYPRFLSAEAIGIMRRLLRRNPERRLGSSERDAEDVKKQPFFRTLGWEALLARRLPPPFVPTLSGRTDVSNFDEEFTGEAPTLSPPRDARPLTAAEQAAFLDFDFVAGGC
# experiment_description: split-luciferase competition binding
# reported_conditions: compound 10.0 µM
property_measured: inhibition (%)

Some compounds with recorded inhibition:
>>> df
                                   compound  recorded_value
0    CC(C)N(CCC(=O)c1ccc2ccccc2c1)Cc1ccccc1               0
1    COc1ccc(Cl)cc1NC(=O)Nc1cc(C)nc2ccccc12               0
2          Cn1cnc2c(NCc3ccccc3)nc(NCCO)nc21               6
3          O=c1cc(N2CCOCC2)oc2c1ccc1ccccc12               0
4  O=S(=O)(NCCNC/C=C/c1ccc(Br)cc1)c1cccc2cnccc12               0

1: Cc1cc2nc3c(=O)[nH]c(=O)nc-3n(C)c2cc1C=O
2: Cn1cc(C2=C(c3cn(CCCSC(=N)N)c4ccccc34)C(=O)NC2=O)c2ccccc21
3: c1ccc(-c2n[nH]cc2-c2ccnc3ccccc23)nc1
Ascending by inhibition, please. The labels, placed in the requested order, form the answer. 1, 3, 2
(1: 0%, 3: 7%, 2: 36%)

1: CC(C)[C@H](CO)Nc1nc(Nc2cccc(Cl)c2)c2ncn(C(C)C)c2n1
2: O=C1c2ccccc2-c2n[nH]c3cccc1c23
3: COc1nccc(-c2c(-c3ccc(F)cc3)ncn2[C@H]2CC[C@H](O)CC2)n1
Ascending by inhibition, please. The labels, placed in the requested order, form the answer. 1, 2, 3

----------
# target_entity: AURKC (human)
# experiment_description: split-luciferase competition binding
# reported_conditions: compound 10.0 µM
property_measured: inhibition (%)

Some compounds with recorded inhibition:
In [3]: df
Out[3]:
                           smiles_structure  recorded_value
0  O=C1NC(=O)c2c1c1c3ccccc3n3c1c1c2c2ccccc2n1C1CCC3O1              45
1  CS(=O)(=O)CCNCc1nc(-c2ccc3ncnc(Nc4ccc(OCc5cccc(F)c5)c(Cl)c4)c3c2)cs1              21
2  Nc1ccc(-c2cccc3c(=O)cc(N4CCOCC4)oc23)cc1              14
3  Cc1cc(I)ccc1Nc1c(C(=O)NOCC2CC2)cc(F)c(F)c1F               0
4           Nc1ncnc2[nH]nc(Nc3ccc(F)cc3)c12              16
5  CO[C@@H]1[C@H](N(C)C(=O)c2ccccc2)C[C@H]2O[C@]1(C)n1c3ccccc3c3c4c(c5c6ccccc6n2c5c31)C(=O)NC4              38
6  Cn1cc(C2=C(c3cn(CCCSC(=N)N)c4ccccc34)C(=O)NC2=O)c2ccccc21              10
7  NC(=O)c1ccc(-c2nc(-c3ccccn3)c(-c3ccc4c(c3)OCO4)[nH]2)cc1               0

I: O=c1cc(N2CCOCC2)oc2c1ccc1ccccc12
II: Oc1ccc(-c2nc(-c3ccc(F)cc3)c(-c3ccncc3)[nH]2)cc1
When the recorded inhibition values are compared, which is smaller: that of I or that of II ? Answer with the label corresponding to your selection. I

1: CN1CCC(Nc2ncc3ncnc(Nc4ccc(F)c(Cl)c4)c3n2)CC1
2: CN(C)CCCn1cc(C2=C(c3c[nH]c4ccccc34)C(=O)NC2=O)c2ccccc21
3: Brc1c(Br)c(Br)c2[nH]nnc2c1Br
4: O=c1cc(N2CCOCC2)nc2c3ccccc3ccn12
Ascending by inhibition, please. The labels, placed in the requested order, form the answer. 2, 3, 4, 1
(2: 0%, 3: 1%, 4: 5%, 1: 10%)

P: O=C1NC(=O)c2cc(Nc3ccc(F)cc3)c(Nc3ccc(F)cc3)cc21
Q: Fc1ccc(Cl)cc1-c1nc(Nc2ccncc2)c2nccnc2n1
Of P and Q , whose reported inhibition is the larger number? Answer with the label corresponding to your selection. Q
(Q: 8%, P: 0%)
